target entity: NAD(+) hydrolase SARM1 (Homo sapiens) (UniProt Q6SZW1)
Sequence (Q6SZW1 whole entry, looked up): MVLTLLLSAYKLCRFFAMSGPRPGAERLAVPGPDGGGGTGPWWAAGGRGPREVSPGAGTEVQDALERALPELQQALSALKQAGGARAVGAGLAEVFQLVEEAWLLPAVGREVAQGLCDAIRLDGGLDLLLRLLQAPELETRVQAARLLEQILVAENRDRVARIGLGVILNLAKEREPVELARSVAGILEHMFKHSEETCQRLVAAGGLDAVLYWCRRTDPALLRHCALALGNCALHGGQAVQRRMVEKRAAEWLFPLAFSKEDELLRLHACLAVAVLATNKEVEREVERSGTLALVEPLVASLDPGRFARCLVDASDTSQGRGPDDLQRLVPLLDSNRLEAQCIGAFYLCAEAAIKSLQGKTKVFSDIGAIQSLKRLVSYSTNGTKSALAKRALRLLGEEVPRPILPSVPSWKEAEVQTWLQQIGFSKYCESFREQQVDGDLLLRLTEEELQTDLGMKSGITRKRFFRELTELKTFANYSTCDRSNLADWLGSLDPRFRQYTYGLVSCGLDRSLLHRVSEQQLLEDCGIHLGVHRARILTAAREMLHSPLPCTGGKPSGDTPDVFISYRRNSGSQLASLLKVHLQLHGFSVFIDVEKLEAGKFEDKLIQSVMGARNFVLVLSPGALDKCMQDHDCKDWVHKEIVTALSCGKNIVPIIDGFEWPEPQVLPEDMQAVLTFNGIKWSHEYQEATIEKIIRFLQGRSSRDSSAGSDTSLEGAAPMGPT
protocol text: SARM1 TIR NADase inhibitors, cell lysate, NAD-Glo luminescence (AID 1508614);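 note: higher remaining NAD means stronger inhibition of SARM1 NADase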
condition label: SAM-TIR HEK293T lysate NADase, at 1 µM
Activity calls are given as the source filed them.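 Rule for the calls: active = compound whose remaining NAD level is above about 45 nM (limit read from the data); inactive = the rest.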
Classes to choose from: active, inactive

Known results for compounds:
compound	classification
CCCC(=O)Nc1ncnc2c1ncn2[C@@H]1O[C@@H]2COP(=O)(O)O[C@H]2[C@H]1OC(=O)CCC	inactive
CC[C@H]1OC(=O)[C@H](C)[C@@H](O[C@H]2C[C@@](C)(OC)[C@@H](O)[C@H](C)O2)[C@H](C)[C@@H](O[C@@H]2O[C@H](C)C[C@H](N(C)C)[C@H]2O)[C@](C)(OC)C[C@@H](C)C(=O)[C@H](C)[C@@H](O)[C@]1(C)O	inactive
C[N+](C)(C)CC(O)CC(=O)[O-] (stereo not drawn)	inactive
CC(=O)[C@H]1CC[C@H]2[C@@H]3C=CC4=CC(=O)CC[C@@]4(C)[C@@H]3CC[C@]12C	inactive
CC1=C(/C=C/C(C)=C/C=C/C(C)=C/C=C/C=C(C)/C=C/C=C(C)/C=C/C2=C(C)CCCC2(C)C)C(C)(C)CCC1	inactive

Prompt line: I'd appreciate the recorded outcome for COc1c(C)c2c(c(O)c1C/C=C(\C)CCC(=O)OCCN1CCOCC1)C(=O)OC2 from this test.
Response line: inactive

Prompt line: Please indicate how the test categorized CN(C(=O)CN(CCO)CC(=O)N(C)C(C)(C)Cc1ccccc1)C(C)(C)Cc1ccccc1 .
Response line: inactive

----------
# inhibition per entry
protocol text: LFS_MB_1R medulloblastoma cell growth inhibition, synergistic combos for chromothripsis tumors, cisplatin or BGB combos (AID 1671452);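 note: cells exposed for 96 hours before readout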
condition label: LFS_MB_1R medulloblastoma cells, measured here: combination with cisplatin, at 5 µM, stronger effect = higher value
Report the figure in % without appending any unit label.

Prompt line: Which value of inhibition has been reported for Cc1ccc2nc(N)[nH]c(=O)c2c1Sc1ccncc1 in the records?
Response line: 0.93

Prompt line: Value lookup for inhibition; key = CN1CCN(c2c(F)cc3c(=O)c(C(=O)O)cn4c3c2OCN4C)CC1
Response line: 23.6

Prompt line: Fill blank: measured inhibition of the compound CNC1CCCN(c2c(F)cc3c(=O)c(C(=O)O)cn(C4CC4)c3c2OC)C1 (stereo not given) is ____.
Response line: -26

Prompt line: May I ask what inhibition has been recorded for O=c1cc[nH]c(=O)[nH]1 ?
Response line: -36.2

Prompt line: Need inhibition of Nc1ncn([C@H]2C[C@H](O)[C@@H](CO)O2)c(=O)n1 , thanks.
Response line: -10.1

Prompt line: Which value of inhibition has been reported for CN1C[C@@H]2C[C@H]1CN2c1cc2c(cc1F)c(=O)c(C(=O)O)cn2C1CC1 in the records?
Response line: -44.9

Prompt line: Requested read-out: inhibition. Entry: O=c1c(O)c(-c2ccc(O)c(O)c2)oc2cc(O)ccc12
Response line: -12.6

Prompt line: Record request: inhibition value, item N=c1ccn2c(n1)O[C@H]1[C@H](O)[C@@H](CO)O[C@H]12
Response line: 68.2

Prompt line: Dear colleague, I am looking for the recorded inhibition of the following compound: CC1(C(=O)O)CCC2(C)CCC3(C)C(=CC(=O)C4C5(C)CCC(OC(=O)CCC(=O)O)C(C)(C)C5CCC43C)C2C1 (stereo not given)
Response line: -0.5

Prompt line: So what's the measured inhibition for this one? O=c1[nH]c(=O)n([C@H]2C[C@H](O)[C@@H](CO)O2)cc1Br
Response line: 18.2

----------
protocol text: ovarian cancer cell viability with rucaparib, profiling panel, oncology-focused library, rucaparib conditional (AID 1508598)
condition label: patient-derived ovarian cancer cells, CellTiter-Glo viability, 144 h; at 0.000305 µM; OCI-C5x cells; with rucaparib 10 µM; stronger effect = lower value; 100% = cells with rucaparib alone
quantity name: viability (%)
Give the quantity in %, number only.

> print(dat)
                                 mol.smiles  quantity.name  unit.abbreviation  value
1  Nc1ncn([C@H]2C[C@H](O)[C@@H](CO)O2)c(=O)n1      viability                  %    122
2  COc1nc(N)nc2c1ncn2[C@@H]1O[C@H](CO)[C@@H](O)[C@@H]1O      viability                  %    129
3  CC(C)n1c(/C=C/[C@@H](O)C[C@@H](O)CC(=O)O)c(-c2ccc(F)cc2)c2ccccc21      viability                  %    102
4  CNC(=O)c1ccccc1Sc1ccc2c(/C=C/c3ccccn3)n[nH]c2c1      viability                  %    107
5  CN(N=O)C(=O)N[C@@H]1[C@@H](O)[C@H](O)[C@@H](CO)O[C@@H]1O      viability                  %    107

With those in mind, consider the next molecule.
Prompt line: What does the record list as viability for O=C(NOCC1CC1)c1ccc(F)c(F)c1Nc1ccc(I)cc1Cl ?
Response line: 116

----------
protocol text: inhibition of endothelial tube formation, primary screen, imaging, VEGF stimulated, CD31 staining, tube area, NPC library (AID 1117340)
condition label: VEGF-stimulated ADSC/ECFC co-culture, at 10 µM, stronger effect = higher value
Below: a set of entries, each annotated with reported tube area decrease.
Quick reminder: number only, in %, skip the unit.

Worked cases, tube area decrease given:
> print(dat)
                                   compound       quantity.name  unit.abbreviation  value
1    CCN1CCC[C@H]1CNC(=O)c1c(OC)ccc(Br)c1OC  tube area decrease                  %   19.3
2  CC(C)C[C@H](NC(=O)[C@H](CCc1ccccc1)NC(=O)CN1CCOCC1)C(=O)N[C@@H](Cc1ccccc1)C(=O)N[C@@H](CC(C)C)C(=O)[C@@]1(C)CO1  tube area decrease                  %    110
3  O=c1[nH]c(=O)n([C@H]2C[C@H](O)[C@@H](CO)O2)cc1Br  tube area decrease                  %   54.6
4  CN1CCCC(CC2c3ccccc3Sc3ccccc32)C1 (stereo not given)  tube area decrease                  %   54.2
5    CCc1cccc(CC)c1NC(=O)CN(CC(=O)O)CC(=O)O  tube area decrease                  %    7.4

Prompt line: If you can, please state the reported tube area decrease value of CC(C(=O)O)c1cccc(C(=O)c2ccccc2)c1 (stereo not given) .
Response line: -21.2

----------
protocol text: antimalarial activity against Dd2 strain (AID 2302);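 note: 0% = DMSO untreated growth and 100% = chloroquine plus artemisinin killed control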
condition label: P. falciparum Dd2 in RBCs, LDH growth readout, 72 h; at 2 µM; stronger effect = higher value
Respond with met for growth inhibition values of 70% and above, not met for values below.

The following compounds have reported results that may help.
> print(dat)
                                 mol.smiles  classification
1  O=C(NCCCCN1CCC(c2ccc(OC(F)(F)F)cc2)CC1)c1ccc(NC(=O)c2ccc(Cl)cc2)cc1             met
2  CCS(=O)(=O)Nc1ccc2[nH]c(O)c(C(=Nc3ccc(CN4CCCCC4)cc3)c3ccccc3)c2c1             met

Prompt line: Is it the case that FC(F)(F)c1cccc(CNCCCCCNCc2ccc(Cl)cc2)c1 has growth inhibition reaching or exceeding 70%?
Response line: not met

Prompt line: Has COc1cc2c(Nc3ccc(NC(=O)c4ccccc4)cc3)ncnc2cc1OCCCN1CCOCC1 a recorded growth inhibition greater than or equal to 70%?
Response line: met

Prompt line: Decide: growth inhibition of O=C(NCCc1ccc(Cl)c(Cl)c1)c1ccc(CNC(=O)c2ccc(O)c(-c3ccc(Cl)c(Cl)c3)c2)cc1 >= 70%?
Response line: not met

Prompt line: Is it the case that CCCCCCCCNc1c2ccc(Cl)cc2nc2ccc(OC)cc12 has growth inhibition reaching or exceeding 70%?
Response line: met

Prompt line: Tell me whether growth inhibition is at least 70% here: c1ccc(COc2ccc(C3CCCCC3)cc2)nc1
Response line: not met

Prompt line: Decide: is the reported value of growth inhibition for CCc1cn2c3c(cc(C(=O)N[C@@H](Cc4cc(F)cc(F)c4)[C@H](O)CNC4CC4)cc13)N(C)S(=O)(=O)CC2 equal to or greater than 70%?
Response line: met

----------
Tested on: R275C/beta4
protocol text: modulators of BK channel variants, profiling panel, selectivity assay, cell-based, U2OS BacMam, thallium flux, beta subunits (AID 1259406);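 note: initial slope of Thallos dye fluorescence rise after thallium is added; log ratio against the mean of 0.3% DMSO vehicle wells on the same plate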
condition label: at 30 µM
Activity calls are given as the source filed them.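 How the source made its calls: active means thallium flux through the channel raised or lowered by more than 3 SD from vehicle-only wells, actives on both sides; inactive means the rest.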
Please reply with one of these outcomes: active, inactive

> print(dat)
                                   compound  classification
1  CON=C(C(=O)NC1C(=O)N2C(C(=O)O)=C(COC(C)=O)CSC12)c1csc(N)n1 (centres undefined)        inactive
2  CNCCC(Oc1ccc(C(F)(F)F)cc1)c1ccccc1 (centres undefined)          active
3                  N=c1nc(N2CCCCC2)cc(N)n1O        inactive
4              CC(=O)N=c1sc(S(N)(=O)=O)nn1C        inactive

Prompt line: Hello, I am checking results. What call was entered for C[C@H](CCC(=O)O)[C@H]1CC[C@H]2[C@@H]3[C@@H](O)C[C@@H]4C[C@H](O)CC[C@]4(C)[C@H]3CC[C@]12C ?
Response line: inactive

Prompt line: So what was the verdict on CCCCC(=O)O[C@H]1CC[C@H]2[C@@H]3CCc4cc(O)ccc4[C@H]3CC[C@]12C in this test?
Response line: inactive

Prompt line: What did this assay record as the result for CN(C)c1nc(N(C)C)nc(N(C)C)n1 ?
Response line: inactive

Prompt line: In this assay, the call recorded for CC(C)(C(=O)O)c1ccc(C(O)CCCN2CCC(C(O)(c3ccccc3)c3ccccc3)CC2)cc1 (centres undefined) was what?
Response line: inactive
